- system-name: HLA-B*53:01
- test: IEDB peptide-MHC binding, purified MHC/competitive/radioactivity; filed as Kd, often an IC50 or EC50 that approximates it; bounds were set here for any values at or beyond the usual limits of such assays
- protocol-conditions: source organism: Dengue virus 1 Brazil/97-11/1997
property-name: Kd (nM)
State just the number; it will be interpreted in nM.

Asked: Param readout = Kd; param system = HLA-B*53:01; param query = `TTLSLDYAW` ; response: value
Given back: 70.9

====

- system-name: HLA-A*02:01
- test: IEDB peptide-MHC binding, purified MHC/direct/fluorescence; filed as Kd, often an IC50 or EC50 that approximates it; bounds were set here for any values at or beyond the usual limits of such assays
- protocol-conditions: source organism: Cowpox virus
property-name: Kd

Asked: Quick one: Kd of `RHDITGFIL` ?
Given back: ≥ 20 µM

====

- system-name: HLA-A*11:01
- test: IEDB peptide-MHC binding, purified MHC/competitive/radioactivity; filed as Kd, often an IC50 or EC50 that approximates it; bounds were set here for any values at or beyond the usual limits of such assays
- protocol-conditions: source organism: Vaccinia virus WR
YES if Kd is below 100 nM. NO if not; exact matches included in NO.

Asked: Please let me know if `IVNEHDIKY` shows Kd below 100 nM.
Given back: YES

Asked: Please let me know if `IVQLPKRGVR` shows Kd below 100 nM.
Given back: NO

Asked: Please let me know if `DSMDVLAEKK` shows Kd below 100 nM.
Given back: NO

Asked: Please let me know if `SLIKTILASY` shows Kd below 100 nM.
Given back: NO

Asked: Please let me know if `VLCVKKFYK` shows Kd below 100 nM.
Given back: YES

Asked: Please let me know if `TLDTMDDMK` shows Kd below 100 nM.
Given back: NO

Asked: Please let me know if `ETAKVIKLVK` shows Kd below 100 nM.
Given back: NO

Asked: Please let me know if `LQMAGVEVR` shows Kd below 100 nM.
Given back: NO

Asked: Please let me know if `VTSLAIKNY` shows Kd below 100 nM.
Given back: NO

Asked: Please let me know if `FMDEIDHESY` shows Kd below 100 nM.
Given back: NO

Asked: Please let me know if `MVDVSMMSMY` shows Kd below 100 nM.
Given back: NO

Asked: Please let me know if `SLFYTFAISY` shows Kd below 100 nM.
Given back: YES

Asked: Please let me know if `NLKSLLLENK` shows Kd below 100 nM.
Given back: YES

Asked: Please let me know if `HIKVDHPDK` shows Kd below 100 nM.
Given back: NO

Asked: Please let me know if `LMHPDFCKNR` shows Kd below 100 nM.
Given back: NO

Asked: Please let me know if `DLLNSMMNR` shows Kd below 100 nM.
Given back: NO

Asked: Please let me know if `YTLFQQTGR` shows Kd below 100 nM.
Given back: NO

Asked: Please let me know if `ISYCRAFIY` shows Kd below 100 nM.
Given back: YES

Asked: Please let me know if `DLIAMENLK` shows Kd below 100 nM.
Given back: NO

Asked: Please let me know if `ILSDENYLLK` shows Kd below 100 nM.
Given back: YES

Asked: Please let me know if `NVKHTSVSAK` shows Kd below 100 nM.
Given back: NO

Asked: Please let me know if `IAQYKCVTIK` shows Kd below 100 nM.
Given back: NO

Asked: Please let me know if `NMKPNFWSR` shows Kd below 100 nM.
Given back: NO

Asked: Please let me know if `QTVNICIFY` shows Kd below 100 nM.
Given back: YES

Asked: Please let me know if `FIESSICLDY` shows Kd below 100 nM.
Given back: NO

Asked: Please let me know if `STDVNKQNK` shows Kd below 100 nM.
Given back: YES

Asked: Please let me know if `MLDTSEKYSK` shows Kd below 100 nM.
Given back: NO

Asked: Please let me know if `RSIAMLKSK` shows Kd below 100 nM.
Given back: YES

Asked: Please let me know if `NAILHNIYR` shows Kd below 100 nM.
Given back: NO

Asked: Please let me know if `VVRDFENYVK` shows Kd below 100 nM.
Given back: YES

Asked: Please let me know if `SFIISTLNK` shows Kd below 100 nM.
Given back: YES

Asked: Please let me know if `TMKAIEKDR` shows Kd below 100 nM.
Given back: NO

Asked: Please let me know if `AALDGTFQRK` shows Kd below 100 nM.
Given back: YES

Asked: Please let me know if `KASTISWMMK` shows Kd below 100 nM.
Given back: YES

Asked: Please let me know if `TSLAIKNYYR` shows Kd below 100 nM.
Given back: YES

Asked: Please let me know if `VLGLGLSLK` shows Kd below 100 nM.
Given back: YES

Asked: Please let me know if `FTLNHVLALK` shows Kd below 100 nM.
Given back: YES

Asked: Please let me know if `VFYRSGTETK` shows Kd below 100 nM.
Given back: NO

Asked: Please let me know if `KAKWLTPFEK` shows Kd below 100 nM.
Given back: NO

Asked: Please let me know if `GTDDEVIER` shows Kd below 100 nM.
Given back: NO

Asked: Please let me know if `LIVSLCPTK` shows Kd below 100 nM.
Given back: NO

Asked: Please let me know if `VSENTGMGMY` shows Kd below 100 nM.
Given back: NO

Asked: Please let me know if `YFISIYSRPK` shows Kd below 100 nM.
Given back: NO

Asked: Please let me know if `YIWIKNLETY` shows Kd below 100 nM.
Given back: NO

Origin of values: the Immune Epitope Database (IEDB)
